# Test system: RANTES secretion by prostate cancer DU145 cells
# experiment: ELISA to detect secreted RANTES, prostate cancer DU145 cells
# Type: cell-based
# conditions: Homo sapiens, DU-145; DU145 cells, 20 hours; read-out: IC50, inhibition of the secretion of RANTES
pIC50: −log10 of the molar value.
parameter measured: pIC50

-- ask Report measured pIC50 on RANTES secretion by prostate cancer DU145 cells; entry: COCCOC1CN(Cc2ccc(Nc3nccc(-c4ccc(OC5CCOCC5)c(C#N)c4)n3)cn2)C1
-- reply 7.22 to 7.70

-- ask Report measured pIC50 on RANTES secretion by prostate cancer DU145 cells; entry: COCCOC1CN(C(=O)c2ccc(Nc3nccc(-c4ccc(OC5CCOCC5)c(C#N)c4)n3)cn2)C1
-- reply 6.90 to 7.22

-- ask Report measured pIC50 on RANTES secretion by prostate cancer DU145 cells; entry: COC1CN(Cc2ccc(Nc3nccc(-c4ccc(NC(=O)C5CC5)c(C#N)c4)n3)cn2)C1
-- reply 6.90 to 7.22

-- ask Report measured pIC50 on RANTES secretion by prostate cancer DU145 cells; entry: N#Cc1cc(-c2ccnc(Nc3ccc(N4CCOCC4)nc3)n2)ccc1NC(=O)C1CC1
-- reply 7.22 to 7.70

----------
# experimental target: IKKε (Homo sapiens, UniProt Q14164)
# Construct: His-tag (in-house Sf9 preparation) or GST-tag (purchased Invitrogen preparation); these are alternatives, not both on one protein; host or cells: Sf9 cells
# Sequence (Q14164 whole entry): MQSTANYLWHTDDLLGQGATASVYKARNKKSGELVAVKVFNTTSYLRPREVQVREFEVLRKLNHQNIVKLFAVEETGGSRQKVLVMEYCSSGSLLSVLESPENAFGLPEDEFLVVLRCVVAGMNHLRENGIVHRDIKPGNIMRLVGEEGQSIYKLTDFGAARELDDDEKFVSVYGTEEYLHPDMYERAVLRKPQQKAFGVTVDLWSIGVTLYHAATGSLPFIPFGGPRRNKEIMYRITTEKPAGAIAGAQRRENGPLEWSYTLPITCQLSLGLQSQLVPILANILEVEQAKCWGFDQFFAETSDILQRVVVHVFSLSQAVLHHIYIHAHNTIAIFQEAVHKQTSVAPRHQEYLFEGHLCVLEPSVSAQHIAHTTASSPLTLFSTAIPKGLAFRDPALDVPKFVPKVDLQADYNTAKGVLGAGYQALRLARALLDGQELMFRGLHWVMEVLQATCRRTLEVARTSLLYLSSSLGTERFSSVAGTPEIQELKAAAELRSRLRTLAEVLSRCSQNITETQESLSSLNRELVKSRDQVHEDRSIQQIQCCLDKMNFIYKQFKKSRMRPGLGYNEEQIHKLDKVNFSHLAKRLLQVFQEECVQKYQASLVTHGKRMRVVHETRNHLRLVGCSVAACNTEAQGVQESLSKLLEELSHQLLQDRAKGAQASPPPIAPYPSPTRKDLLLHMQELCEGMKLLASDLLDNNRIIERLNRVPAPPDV
# experiment: In-vitro IKKε kinase assay (radiolabelled ATP, filterplate)
# Assay type: biochemical
# conditions: "sensitized" assay; read-out: IC50, inhibition of the kinase activity of IKKε
pIC50: −log10 of the molar value.
Assign pIC50 to each entry below.

-- ask Check the records and state pIC50 for N#Cc1cc(-c2ccnc(Nc3ccc(-c4cn[nH]c4)nc3)n2)ccc1OC1CCOCC1
-- reply > 8.30

-- ask Check the records and state pIC50 for Cc1ccc(Nc2nccc(-c3ccc(OC4CCN(C(=O)CO)CC4)c(C#N)c3)n2)cn1
-- reply > 8.30

-- ask Check the records and state pIC50 for COC1CN(c2cc(Nc3nccc(-c4ccc(OC5CCN(C(=O)CO)CC5)c(C#N)c4)n3)ccn2)C1
-- reply > 8.30

-- ask Check the records and state pIC50 for COCCNc1cc(Nc2nccc(-c3ccc(OCC4CC4)c(C#N)c3)n2)ccn1
-- reply > 8.30

-- ask Check the records and state pIC50 for Cc1cc(Nc2nccc(-c3ccc(O[C@@H]4CCN(C(=O)CO)C4)c(C#N)c3)n2)ccn1
-- reply > 8.30

-- ask Check the records and state pIC50 for CC(C)COc1ccc(-c2ccnc(Nc3ccc(N(C)CCO)nc3)n2)cc1C#N
-- reply > 8.30

-- ask Check the records and state pIC50 for COC(=O)c1cc(Nc2nccc(-c3ccc(OC4CCOCC4)c(C#N)c3)n2)ccn1
-- reply > 8.30

-- ask Check the records and state pIC50 for N#Cc1cc(-c2ccnc(Nc3ccnc(NCCO)c3)n2)ccc1OC1CCN(C(=O)CO)CC1
-- reply > 8.30

-- ask Check the records and state pIC50 for CC(=O)NCc1ccc(Nc2nccc(-c3ccc(OC4CCOCC4)c(C#N)c3)n2)cn1
-- reply > 8.30

-- ask Check the records and state pIC50 for COC1CN(c2cc(Nc3nccc(-c4ccc(NC(=O)C5CC5)c(C#N)c4)n3)ccn2)C1
-- reply > 8.30

-- ask Check the records and state pIC50 for COC1CN(Cc2cncc(Nc3nccc(-c4ccc(OC5CCOCC5)c(C#N)c4)n3)c2)C1
-- reply > 8.30

-- ask Check the records and state pIC50 for Cn1cc(-c2cc(Nc3nccc(-c4ccc(O[C@@H]5CCN(C(=O)CO)C5)c(C#N)c4)n3)ccn2)cn1
-- reply > 8.30

-- ask Check the records and state pIC50 for CC(c1ncc(Nc2nccc(-c3ccc(OC4CCOCC4)c(C#N)c3)n2)cc1F)N1CC(N(C)C)C1 (stereo not drawn)
-- reply > 8.30

-- ask Check the records and state pIC50 for CC(=O)N(C)Cc1ccc(Nc2nccc(-c3ccc(OC4CCOCC4)c(C#N)c3)n2)cn1
-- reply > 8.30

-- ask Check the records and state pIC50 for N#Cc1cc(-c2ccnc(Nc3ccc(N4CCOCC4)nc3)n2)ccc1NC(=O)C1CC1
-- reply > 8.30

-- ask Check the records and state pIC50 for COC1CN(Cc2ccc(Nc3nccc(-c4ccc(OC5CCOCC5)c(C#N)c4)n3)cn2)C1
-- reply > 8.30

-- ask Check the records and state pIC50 for CC(O)c1ccc(Nc2nccc(-c3ccc(OC4CCOCC4)c(C#N)c3)n2)cn1 (stereo not drawn)
-- reply > 8.30

-- ask Check the records and state pIC50 for C[C@@H](O)C(=O)N(C)Cc1ccc(Nc2nccc(-c3ccc(OC4CCOCC4)c(C#N)c3)n2)cn1
-- reply > 8.30

-- ask Check the records and state pIC50 for N#Cc1cc(-c2ccnc(Nc3ccc(C(=O)N4CCC4)nc3)n2)ccc1OC1CCOCC1
-- reply > 8.30

-- ask Check the records and state pIC50 for N#Cc1cc(-c2ccnc(Nc3cncc(C(=O)NCCO)c3)n2)ccc1OC1CCOCC1
-- reply > 8.30

-- ask Check the records and state pIC50 for N#Cc1cc(-c2ccnc(Nc3cncc(CN4CCOCC4)c3)n2)ccc1OC1CCOCC1
-- reply > 8.30

-- ask Check the records and state pIC50 for CCN(CC)c1ccc(Nc2nccc(-c3ccc(NC(=O)C4CC4)c(C#N)c3)n2)cn1
-- reply > 8.30

-- ask Check the records and state pIC50 for COc1cncc(Nc2nccc(-c3ccc(OC4CCOCC4)c(C#N)c3)n2)c1
-- reply > 8.30

-- ask Check the records and state pIC50 for N#Cc1cc(-c2ccnc(Nc3ccc(N4CCCC4)nc3)n2)ccc1OC1CCOCC1
-- reply > 8.30

-- ask Check the records and state pIC50 for N#Cc1cc(-c2ccnc(Nc3ccnc(N4CC(O)C4)c3)n2)ccc1OCC1CC1
-- reply > 8.30

-- ask Check the records and state pIC50 for Cc1ccc(Nc2nccc(-c3ccc(OC4CCOCC4)c(C#N)c3)n2)cn1
-- reply > 8.30

-- ask Check the records and state pIC50 for Cn1cc(-c2cc(Nc3nccc(-c4ccc(OC5CCOCC5)c(C#N)c4)n3)ccn2)cn1
-- reply > 8.30

-- ask Check the records and state pIC50 for CC(c1ccc(Nc2nccc(-c3ccc(OC4CCOCC4)c(C#N)c3)n2)cn1)N1CC(N(C)C)C1 (stereo not drawn)
-- reply > 8.30

-- ask Check the records and state pIC50 for COC1CN(C(=O)c2ncc(Nc3nccc(-c4ccc(OC5CCOCC5)c(C#N)c4)n3)n2C)C1
-- reply > 8.30

-- ask Check the records and state pIC50 for N#Cc1cc(-c2ccnc(Nc3ccncc3)n2)ccc1OC1CCOCC1
-- reply > 8.30
